test: Acute toxicity tests in rats; details: rat, in vivo; rats, oral route
As shown below, each of these compounds has a reported LD50 value.
metric: LD50 (mg/kg)

INSERT INTO results (compound, metric, val) VALUES
  ('CCCC(CCC)C(=O)OCC(O)CO (centres unmarked) [glyceryl 1-(di-n-propylacetate), Glyceryl 1-(di-n-propylacetate)]', 'LD50', 2360),
  ('CCCC(CCC)C(=O)[O-].[Na+] [sodium di-n-propylacetate, reference compound]', 'LD50', 1530);

---

test: Acute toxicity tests in mice; conditions: mouse, in vivo, oral route
metric: LD50 (mg/kg)

INSERT INTO results (molecule, unit_of_measurement, val) VALUES
  ('CCCC(CCC)C(=O)[O-].[Na+] [sodium di-n-propylacetate, reference compound]', 'mg/kg', 1700),
  ('CCCC(CCC)C(=O)OCC(O)CO (centres unmarked) [glyceryl 1-(di-n-propylacetate), Glyceryl 1-(di-n-propylacetate)]', 'mg/kg', 3360);
